settings: in 1,4-dioxane, 288.15 K
QUANTITY_MEASURED: solubility (mole fraction)
Lab note: jot the number down without any unit.

Data request: Look up solubility (mole fraction) for this molecule: C=CC(=O)NC(C)(C)CS(=O)(=O)O
Data returned: 0.000105
